- target-desc: Short transient receptor potential channel 4 (Mus musculus)
- method-description: blockers of DAMGO-evoked TRPC4 calcium flux – cell-based, second round, Fluo4, HEK293 TRPC4beta/mu-opioid, 1 µM, confirmation (AID 2637)
- measurement-context: at 1 µM
Active and inactive are the calls of the source.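 Rule for the calls: active = calcium signal ratio cut to more than 3 SD under the fully stimulated control mean yet still positive, in both repeats and the primary screen; inactive = the rest.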
Use one of these outcomes when replying: 1 (active), -1 (inactive)

Worked examples follow.
compound | class
CC(=O)OCC1O[C@@H](O[C@@H]2C[C@H]3C(C)(C)[C@H](OC(C)=O)CC[C@]3(C)[C@H]3CC[C@]45C[C@]4(CC[C@H]5[C@@H](C)C[C@@H](O)[C@H](O)C(C)(C)O)[C@@]32C)[C@H](O)[C@@H](O)[C@@H]1O (stereo not given in full) | -1
CCC1C=C(c2ccccc2)C=CN=C1N(CC)CC (stereo not given) | -1
CCCOc1ccc(-c2nc(SCc3ccccc3)[nH]c(=O)c2C#N)cc1OC | -1
O=C1S/C(=C\c2ccc(N3CCOCC3)o2)C(=O)N1Cc1c(F)cccc1Cl | -1
CCCCN(CC)CCNc1c(N2CCN(C(=O)OCC)CC2)c(=O)c1=O | -1

Ask: Lab log entry: `Cc1csc2c(N3CCN(C(=S)Nc4ccc(C(F)(F)F)cc4)CC3)ncnc12` — outcome as called in the assay?
Result: -1

Ask: Lab log entry: `COc1ccc(-c2csc(NC(=O)Cc3cccc4ccccc34)c2C(=O)O)cc1` — outcome as called in the assay?
Result: -1

Ask: Lab log entry: CN(CCc1ccccn1)C(=O)CC1C(=O)NCCN1Cc1cccc(F)c1 (stereo not given) — outcome as called in the assay?
Result: -1

Ask: Lab log entry: `O=C(NN/C(=N/S(=O)(=O)c1ccc(Cl)cc1)c1ccccc1)c1cccc(Cl)c1` — outcome as called in the assay?
Result: -1

Ask: Lab log entry: `CNCCOc1ccc(Cl)c(Cl)c1` — outcome as called in the assay?
Result: -1

Ask: Lab log entry: O=C(O)C1C2C=CC(C2)C1C(=O)N1CCN(C/C=C/c2ccccc2)CC1 (stereo not given) — outcome as called in the assay?
Result: -1

Ask: Lab log entry: `COc1ccc(C(=O)CN2CCN(CCN3C(=O)c4cccc5cccc(c45)C3=O)CC2)cc1` — outcome as called in the assay?
Result: -1

Ask: Lab log entry: `CN(C)S(=O)(=O)N1CCC(CCCC2CCN(S(=O)(=O)N(C)C)CC2)CC1` — outcome as called in the assay?
Result: -1

Ask: Lab log entry: `Cc1ccc(OCc2cc(C(=O)N(C)CCc3nc4ccccc4[nH]3)no2)cc1C` — outcome as called in the assay?
Result: -1

Ask: Lab log entry: Cc1c(N(C)S(=O)(=O)c2cc(C(=O)NCC3CCCO3)ccc2Cl)c(=O)n(-c2ccccc2)n1C (stereo not given) — outcome as called in the assay?
Result: 1

Ask: Lab log entry: `C=CCSc1nnc2n(-c3ccccc3OC)c(=O)c3c4c(sc3n12)CCC4` — outcome as called in the assay?
Result: -1

Ask: Lab log entry: `COc1ccc(CNc2ccc(Cl)cc2)cc1Cn1ccnc1` — outcome as called in the assay?
Result: -1
